Here the recorded pIC50 is given for each entry.
assay-target: T1, human B7-H4 extracellular domain (human, UniProt Q7Z7D3 29-258);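 further: tested antibody premixed 1:1 with biotinylated parental antibody, 2 h at room temperature on coated ECD, bound biotin detected via streptavidin-HRP, absorbance read at 450 nm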
T1 construct: For SPR it says only human B7-H4 ECD; also called Hu B7-H4 ECD; huB7-H4 ECD
T1 sequence: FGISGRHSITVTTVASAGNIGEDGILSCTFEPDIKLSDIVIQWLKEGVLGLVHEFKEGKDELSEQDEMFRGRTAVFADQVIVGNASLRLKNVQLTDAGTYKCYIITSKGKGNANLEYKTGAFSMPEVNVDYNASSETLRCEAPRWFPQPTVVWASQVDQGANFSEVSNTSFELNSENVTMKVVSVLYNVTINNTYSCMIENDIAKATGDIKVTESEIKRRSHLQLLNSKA
test-description: competition ELISA on coated huB7-H4 ECD; competitor biotinylated 0052 (by series, not given)
Scale note: pIC50 = -log10(concentration in M).

# count of solved cases: 4
[
  {
    "binder": "B7-H4 antibody 0386 (antibody, human IgG1, kappa, V domains shown) VH: QVQLQQWGAGLLKPSETLPLTCAVYGGSFSGYYWNWIRQPPGKGLEWIGEINHSGSATYNPSLKSRVTISVDTSKNHFSLKLSSVTAADTAVYFCARGLYNWNVDHWGQGTLVTVSS VL: DIQMTQSPSSLSASVGDRVTITCRASQGIRNDLGWYQQKPGKAPKRLIYAASSLQSGVPSRFSGSGSGTDFTLTISSLQPEDFATYYCLQHASYPRTFGGGTKVEIKR",
    "pIC50": 8.04
  },
  {
    "binder": "B7-H4 antibody 0934 (antibody, human IgG1, kappa, V domains shown) VH: EVQLVESGGGLVQPGGSLRLSCAVSGGSFSGYYWNWVRQAPGKGLEWIGEINHSGSATYNPSLKSRVTISVDTAKNSLYLQMNSLRAEDTAVYYCARGLYNWNVDHWGQGTLVTVSS VL: DIQMTQSPSSLSASVGDRVTITCRASQGIRNDLGWYQQKPGKAPKRLIYAASSLQSGVPSRFSGSGSGTDFTLTISSLQPEDFATYYCLQHSSYPRTFGGGTKVEIKR",
    "pIC50": 8.44
  },
  {
    "binder": "B7-H4 antibody 0390 (antibody, human IgG1, kappa, V domains shown) VH: QVQLQQWGAGLLKPSETLPLTCAVYGGSFSGYYWNWIRQPPGKGLEWIGEINHSGSATYNPSLKSRVTISVDTSKNHFSLKLSSVTAADTAVYFCARGLYNWNVDHWGQGTLVTVSS VL: DIQMTQSPSSLSASVGDRVTITCRASQGIRNDLGWYQQKPGKAPKRLIYAASSLQSGVPSRFSGSGSGTDFTLTISSLQPEDFATYYCLQHQSYPYTFGQGTKLEIKR",
    "pIC50": 7.82
  },
  {
    "binder": "B7-H4 antibody 0376 (antibody, human IgG1, kappa, V domains shown) VH: EVQLVESGGGLVQPGGSLRLSCAVSGGSFSGYYWNWVRQAPGKGLEWIGEINHSGSATYVDSVKGRFTISRDTAKNSFYLQMNSLRAEDTAVYYCARGLYNWNVDHWGQGTLVTVSS VL: DIQMTQSPSSLSASVGDRVTITCRASQGIRNDLGWYQQKPGKAPKRLIYAASSLQSGVPSRFSGSGSGTEFTLTISSLQPEDFATYYCLQHNSYPRTFGGGTKVEIKR",
    "pIC50": 7.91
  }
]

// below: pIC50 requested for another binder
Query: Identify measured pIC50 associated with B7-H4 antibody 0540 (antibody, human IgG1, kappa, V domains shown) VH: EVQLVESGGGLVQPGGSLRLSCAVSGGSFSGYYWNWIRQPPGKGLEWIGEIDHQGSTKYNPSLKSRVTISVDTAKNSLYLQMNSLRAEDTAVYYCARELYNWNVDHWGQGTLVTVSS VL: DIQMTQSPSSLSASVGDRVTITCRASQGIRNDLGWYQQKPGKAPKRLIYAASSLQSGVPSRFSGSGSGTDFTLTISSLQPEDFATYYCLQHNAYPRTFGGGTKVEIKR
Reply: 7.52

The measurements presented in this section are drawn from patent US20220017622A1.
